# Tested on: PNPLA3 mRNA
# Measurement description: qRT-PCR of PNPLA3 mRNA in compound-treated mouse hepatocytes
# Format: cell-based
# Details: Hepatocyte; Mouse hepatocytes, 10 uM; read-out: PNPLA3 mRNA remaining after treatment compared to untreated cells
Experimental readout: mrna remaining at 10 µM (%)

[
  {
    "Query smiles": "Cc1cccc(-c2nn3c(c2-c2ccnc4ccc(C(N)=O)cc24)CCC3)n1",
    "Endpoint result": 102
  },
  {
    "Query smiles": "N#CCNC(=O)c1ccc(-c2ccnc(Nc3ccc(N4CCOCC4)cc3)n2)cc1",
    "Endpoint result": 24
  },
  {
    "Query smiles": "CC(C)c1cc(CNc2nc(Nc3cc(C4CC4)[nH]n3)cc(N3CCN(C)CC3)n2)on1",
    "Endpoint result": 12
  },
  {
    "Query smiles": "COc1ccc(-c2cc3c(C)nc(N)nc3n([C@H]3CC[C@H](OCCO)CC3)c2=O)cn1",
    "Endpoint result": 20
  }
]

###

# System: PCSK9 mRNA
# Measurement description: qRT-PCR of PCSK9 mRNA in primary hepatocytes
# Type: cell-based, human
# Details: donor 4178, 3 μM, relative to GUSB
Where a name gives a salt, the structure may show the parent alone.
Categorized via Primary Hepatocytes 4178 PCSK9 (fold change in mRNA expression): lower band: < 0.7; central band: ≥ 0.7 and < 0.8; upper band: ≥ 0.8

[
  {
    "Molecule": "COc1ccc(COc2cc3oc(=O)c4cc(C(C)O)ccc4c3cc2OC)cc1 (stereo not shown)",
    "Study system": "PCSK9 mRNA",
    "Category": "upper band"
  },
  {
    "Molecule": "Cc1nc(-c2cn3c(n2)-c2ccc(-c4cnn(C(C)(C)C(N)=O)c4)cc2OCC3)n(C(C)C)n1 [Taselisib (GDC 0032)]",
    "Study system": "PCSK9 mRNA",
    "Category": "lower band"
  },
  {
    "Molecule": "C[C@H](NC(=O)c1c(N)nn2cccnc12)c1cc2cccc(C#Cc3cnn(C)c3)c2c(=O)n1-c1ccccc1",
    "Study system": "PCSK9 mRNA",
    "Category": "central band"
  },
  {
    "Molecule": "Nc1cc(C(F)(F)F)c(-c2cc(N3CCOCC3)nc(N3CCOCC3)n2)cn1 [NVP-BKM120 (Hydrochloride)]",
    "Study system": "PCSK9 mRNA",
    "Category": "lower band"
  },
  {
    "Molecule": "FC(F)c1nc2ccccc2n1-c1nc(N2CCOCC2)nc(N2CCOCC2)n1",
    "Study system": "PCSK9 mRNA",
    "Category": "lower band"
  },
  {
    "Molecule": "CS(=O)(=O)N1CCc2c(-c3cnc(N)nc3)nc(N3CCOCC3)nc21",
    "Study system": "PCSK9 mRNA",
    "Category": "lower band"
  },
  {
    "Molecule": "O=c1c(O)c(-c2ccc(O)c(O)c2)oc2cc(O)cc(O)c12",
    "Study system": "PCSK9 mRNA",
    "Category": "upper band"
  },
  {
    "Molecule": "Nc1cc(C(F)(F)F)c(-c2cc(N3CCOCC3)nc(N3CCOCC3)n2)cn1 [NVP-BKM120]",
    "Study system": "PCSK9 mRNA",
    "Category": "central band"
  },
  {
    "Molecule": "CO[C@H]1C[C@@H]2CC[C@@H](C)[C@@](O)(O2)C(=O)C(=O)N2CCCC[C@H]2C(=O)O[C@H]([C@H](C)C[C@@H]2CC[C@@H](OCCO)[C@H](OC)C2)CC(=O)[C@H](C)/C=C(\\C)[C@@H](O)[C@@H](OC)C(=O)[C@H](C)C[C@H](C)/C=C/C=C/C=C/1C",
    "Study system": "PCSK9 mRNA",
    "Category": "lower band"
  },
  {
    "Molecule": "CO[C@H]1C[C@@H]2CC[C@@H](C)[C@@](O)(O2)C(=O)C(=O)N2CCCC[C@H]2C(=O)O[C@H]([C@H](C)C[C@@H]2CC[C@@H](O)[C@H](OC)C2)CC(=O)[C@H](C)/C=C(\\C)[C@@H](O)[C@@H](OC)C(=O)[C@H](C)C[C@H](C)/C=C/C=C/C=C/1C",
    "Study system": "PCSK9 mRNA",
    "Category": "upper band"
  }
]

###

# Tested on: PNPLA3 mRNA
# Measurement description: qRT-PCR of PNPLA3 mRNA in compound-treated primary human hepatocytes
# Details: donor 4282, 3 μM, relative to GUSB
Counter-ions that a name gives are not always drawn.
Experimental readout: Primary Hepatocytes 4282 PNPLA3 (fold change in mRNA expression)

[
  {
    "Compound": "C[C@@H](Nc1cc(F)cc(F)c1)c1cc(C(=O)N(C)C)cc2c(=O)cc(N3CCOCC3)oc12 [AZD8186]",
    "Study system": "PNPLA3 mRNA",
    "Endpoint result": 0.80
  },
  {
    "Compound": "CS(=O)(=O)N1CCc2c(-c3cnc(N)nc3)nc(N3CCOCC3)nc21 [CH5132799]",
    "Study system": "PNPLA3 mRNA",
    "Endpoint result": 0.60
  },
  {
    "Compound": "CO[C@@H](C)Cn1c(=O)n(C)c2cnc3ccc(-c4cncc(C(C)(C)O)c4)cc3c21 [LY3023414]",
    "Study system": "PNPLA3 mRNA",
    "Endpoint result": 1.00
  },
  {
    "Compound": "O=c1c(O)c(-c2ccc(O)c(O)c2)oc2cc(O)cc(O)c12 [Quercetin]",
    "Study system": "PNPLA3 mRNA",
    "Endpoint result": 0.93
  },
  {
    "Compound": "Cc1c(CN2CCN(C(=O)[C@H](C)O)CC2)sc2c(N3CCOCC3)nc(-c3cnc(N)nc3)nc12 [Apitolisib (GDC-0980, RG7422)]",
    "Study system": "PNPLA3 mRNA",
    "Endpoint result": 0.46
  },
  {
    "Compound": "C[C@H](Nc1ncnc2[nH]cnc12)c1cc2ccc(F)cc2nc1-c1ccccn1 [AMG319]",
    "Study system": "PNPLA3 mRNA",
    "Endpoint result": 0.85
  },
  {
    "Compound": "Cc1nc(NC(=O)N2CCC[C@H]2C(N)=O)sc1-c1ccnc(C(C)(C)C(F)(F)F)c1 [Alpelisib (BYL719), Alpelisib]",
    "Study system": "PNPLA3 mRNA",
    "Endpoint result": 0.69
  },
  {
    "Compound": "FC(F)c1nc2ccccc2n1-c1nc(N2CCOCC2)nc(N2CCOCC2)n1 [ZSTK474]",
    "Study system": "PNPLA3 mRNA",
    "Endpoint result": 0.80
  },
  {
    "Compound": "CNC(=O)c1cccc(-c2ccc3c(N4CCOC[C@@H]4C)nc(N4CCOC[C@@H]4C)nc3n2)c1 [AZD2014]",
    "Study system": "PNPLA3 mRNA",
    "Endpoint result": 0.80
  },
  {
    "Compound": "CCNC(=O)Nc1ccc(-c2nc(N3CCOC[C@@H]3C)c3c(n2)C(C)(C)S(=O)(=O)C3)cc1 [CZ415]",
    "Study system": "PNPLA3 mRNA",
    "Endpoint result": 0.70
  },
  {
    "Compound": "O=C1OC(COc2ccccc2[N+](=O)[O-])CC1Cc1ccccc1 (stereo not shown) [Compound 3BDO]",
    "Study system": "PNPLA3 mRNA",
    "Endpoint result": 1.00
  },
  {
    "Compound": "CC(C)Oc1ccc(-c2nn([C@@H](C)c3oc4ccc(F)cc4c(=O)c3-c3cccc(F)c3)c3ncnc(N)c23)cc1F [umbralisib (TGR-1202)]",
    "Study system": "PNPLA3 mRNA",
    "Endpoint result": 0.80
  },
  {
    "Compound": "C[C@H](NC(=O)c1c(N)nn2cccnc12)c1cc2cccc(C#Cc3cnn(C)c3)c2c(=O)n1-c1ccccc1 [IPI-549]",
    "Study system": "PNPLA3 mRNA",
    "Endpoint result": 0.68
  },
  {
    "Compound": "COc1cccc2cc(-c3nc([C@H]4CC[C@H](C(=O)O)CC4)n4ncnc(N)c34)[nH]c12 [OSI-027]",
    "Study system": "PNPLA3 mRNA",
    "Endpoint result": 0.80
  },
  {
    "Compound": "Nc1cc(C(F)(F)F)c(-c2nc(N3CCOCC3)nc(N3CCOCC3)n2)cn1 [PQR309]",
    "Study system": "PNPLA3 mRNA",
    "Endpoint result": 0.60
  },
  {
    "Compound": "Nc1cc(C(F)(F)F)c(-c2cc(N3CCOCC3)nc(N3CCOCC3)n2)cn1 [NVP-BKM120 (Hydrochloride)]",
    "Study system": "PNPLA3 mRNA",
    "Endpoint result": 0.70
  },
  {
    "Compound": "CCOC(=O)C1=C(N)Oc2ccc(Cl)cc2C1C(C#N)C(=O)OCC (stereo not shown) [SC79]",
    "Study system": "PNPLA3 mRNA",
    "Endpoint result": 0.94
  },
  {
    "Compound": "CNC(=O)Nc1ccc(-c2nc(N3CC4CCC(C3)O4)c3cnn(C4CCC5(CC4)OCCO5)c3n2)cc1 [WYE-125132]",
    "Study system": "PNPLA3 mRNA",
    "Endpoint result": 0.70
  },
  {
    "Compound": "COc1ccc(-c2nc(N3CCOCC3)c3sc(CN(C)c4ncc(C(=O)NO)cn4)cc3n2)cn1 [CUDC-907]",
    "Study system": "PNPLA3 mRNA",
    "Endpoint result": 0.50
  },
  {
    "Compound": "Nc1cc(C(F)(F)F)c(-c2cc(N3CCOCC3)nc(N3CCOCC3)n2)cn1 [NVP-BKM120]",
    "Study system": "PNPLA3 mRNA",
    "Endpoint result": 0.70
  },
  {
    "Compound": "CO[C@H]1C[C@@H]2CC[C@@H](C)[C@@](O)(O2)C(=O)C(=O)N2CCCC[C@H]2C(=O)O[C@H]([C@H](C)C[C@@H]2CC[C@@H](O)[C@H](OC)C2)CC(=O)[C@H](C)/C=C(\\C)[C@@H](O)[C@@H](OC)C(=O)[C@H](C)C[C@H](C)/C=C/C=C/C=C/1C [rapamycin]",
    "Study system": "PNPLA3 mRNA",
    "Endpoint result": 1.10
  },
  {
    "Compound": "Cc1nc(-c2cn3c(n2)-c2ccc(-c4cnn(C(C)(C)C(N)=O)c4)cc2OCC3)n(C(C)C)n1 [Taselisib (GDC 0032)]",
    "Study system": "PNPLA3 mRNA",
    "Endpoint result": 0.62
  }
]
